// values below are pIC50; system is human Smoothened receptor (Homo sapiens, UniProt Q99835)
Sequence (Q99835 28-787): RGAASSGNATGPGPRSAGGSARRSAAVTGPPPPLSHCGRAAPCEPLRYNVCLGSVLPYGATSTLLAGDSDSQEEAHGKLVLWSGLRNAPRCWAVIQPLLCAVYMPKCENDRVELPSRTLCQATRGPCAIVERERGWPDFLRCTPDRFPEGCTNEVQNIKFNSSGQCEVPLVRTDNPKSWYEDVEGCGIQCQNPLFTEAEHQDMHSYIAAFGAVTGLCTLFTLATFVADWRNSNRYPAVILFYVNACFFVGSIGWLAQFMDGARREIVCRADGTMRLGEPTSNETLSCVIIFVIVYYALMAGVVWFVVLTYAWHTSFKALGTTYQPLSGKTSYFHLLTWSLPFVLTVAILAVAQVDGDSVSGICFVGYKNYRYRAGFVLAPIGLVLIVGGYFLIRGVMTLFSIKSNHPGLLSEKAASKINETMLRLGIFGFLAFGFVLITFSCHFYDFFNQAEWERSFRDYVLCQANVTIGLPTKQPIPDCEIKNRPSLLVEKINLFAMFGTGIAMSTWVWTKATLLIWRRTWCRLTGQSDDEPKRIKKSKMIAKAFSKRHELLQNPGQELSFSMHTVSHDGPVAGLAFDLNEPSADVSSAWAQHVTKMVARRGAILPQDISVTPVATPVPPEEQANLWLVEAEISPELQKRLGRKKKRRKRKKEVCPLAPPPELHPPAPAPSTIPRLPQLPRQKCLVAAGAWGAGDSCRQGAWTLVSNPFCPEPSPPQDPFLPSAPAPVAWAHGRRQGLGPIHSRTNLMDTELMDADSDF
pIC50: −log10 of the molar value.

Solved entries (count: 3):
CCOC(=O)c1ccc(N2CCN(c3nnc(Cc4ccc(Cl)cc4Cl)c4ccccc34)CC2)nc1 [Example 186]: > 7.00
O=C(c1ccc(C(F)(F)F)cc1)N1CCC(c2cn(Cc3ccccc3)c3ccccc23)CC1 [Example 105]: 5.00 to 6.00
OC1CCN(Cc2ccc(N3CCN(c4nnc(Cc5ccccc5)c5ccccc45)CC3)nc2)C1 (stereo not shown) [Example 223]: 6.00 to 7.00

For the molecule CN(CCCO)C(=O)c1ccc(N2CCN(c3nnc(Cc4ccccc4)c4ccccc34)CC2)nc1 [Example 54t] , what pIC50 is on record? 6.00 to 7.00

====

pIC50: −log10 of the molar value.
# mouse Smoothened receptor (Mus musculus): pIC50 values follow
# Sequence (P56726 33-793): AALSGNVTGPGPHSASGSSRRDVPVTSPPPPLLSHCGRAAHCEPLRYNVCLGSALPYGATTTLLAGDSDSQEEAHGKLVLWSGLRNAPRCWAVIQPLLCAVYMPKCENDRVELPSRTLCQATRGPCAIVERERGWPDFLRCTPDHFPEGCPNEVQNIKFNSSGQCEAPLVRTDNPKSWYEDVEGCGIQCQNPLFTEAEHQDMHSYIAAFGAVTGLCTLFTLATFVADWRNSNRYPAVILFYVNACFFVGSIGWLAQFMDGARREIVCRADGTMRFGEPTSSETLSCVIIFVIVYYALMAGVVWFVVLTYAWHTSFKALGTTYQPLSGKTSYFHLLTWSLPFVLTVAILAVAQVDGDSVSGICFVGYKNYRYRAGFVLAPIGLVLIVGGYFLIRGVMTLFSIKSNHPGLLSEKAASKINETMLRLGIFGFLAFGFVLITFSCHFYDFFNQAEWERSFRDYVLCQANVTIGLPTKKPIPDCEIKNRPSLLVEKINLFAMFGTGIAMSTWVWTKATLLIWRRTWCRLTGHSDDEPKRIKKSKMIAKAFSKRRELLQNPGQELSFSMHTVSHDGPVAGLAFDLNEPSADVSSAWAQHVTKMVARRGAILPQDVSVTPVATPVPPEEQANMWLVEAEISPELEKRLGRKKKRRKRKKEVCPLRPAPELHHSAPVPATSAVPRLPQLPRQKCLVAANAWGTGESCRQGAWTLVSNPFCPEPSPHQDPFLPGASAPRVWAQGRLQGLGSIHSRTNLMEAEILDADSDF

CP(C)(=O)c1ccc(N2CCN(c3nnc(Cc4ccccc4)c4ccccc34)CC2)nc1: 6.00 to 7.00
c1ccc(Cc2nnc(N3CCN(c4ccc(CN5CCOCC5)cn4)CC3)c3ccccc23)cc1: > 7.00
CC(C)(O)c1ccc(N2CCN(c3nnc(Cc4ccc(F)cc4)c4ccccc34)CC2)nc1: > 7.00
CCOC(=O)c1ccc(N2CCN(c3nnc(Cc4ccccc4)c4ccccc34)C[C@H]2C)nc1: > 7.00
Cc1cc(Cc2ccccc2)nnc1N1CCN(c2ccc(C#N)cn2)CC1: 5.00 to 6.00
CCc1cnc(N2CCCN(c3nnc(Cc4ccccc4)c4ccccc34)CC2)nc1: > 7.00
Fc1cc(Cl)cnc1N1CCN(c2nnc(Cc3ccccc3)c3ccccc23)CC1: 6.00 to 7.00

Turning now to a further record.
Form field: reported pIC50 of O=C(NC1CNC1)c1ccc(N2CCN(c3nnc(Cc4ccccc4)c4ccccc34)CC2)nc1 [Example 54y] 5.00 to 6.00

====

pIC50: −log10 of the molar value.
Test system mouse Smoothened receptor (Mus musculus, UniProt P56726), pIC50 listed for each of the compounds.

FC(F)(F)c1ccc(N2CCN(c3nnc(Cc4ccccc4)c4ccccc34)CC2)nc1: > 7.00

Each compound below has a recorded value; state its pIC50.
1. CCOC(=O)c1ccc(N2CCN(c3nnc(Cc4cccc(F)c4)c4ccccc34)CC2)nc1
2. c1ccc2c(N3CCN(c4nnc(Cc5ccncc5)c5ccccc45)CC3)cccc2c1
3. Cc1c(Cc2ccc(F)cc2)nnc(N2CCN(c3ccc(C#N)cn3)CC2)c1C [Example 93a]
4. O=C(NCc1ccc(N2CCN(c3nnc(Cc4ccccc4)c4ccccc34)CC2)cc1)OCc1ccccc1
5. NC1CN(C(=O)c2ccc(N3CCN(c4nnc(Cc5ccccc5)c5ccccc45)CC3)nc2)C1 [Example 54w]
6. COc1ccc(Cc2nnc(N3CCN(c4ccc(C#N)cn4)CC3)c3ccccc23)cc1OC
7. COCCC(=O)NC(C)(C)c1ccc(N2CCN(c3nnc(Cc4ccccc4)c4ccccc34)CC2)nc1

["> 7.00", "5.00 to 6.00", "> 7.00", "6.00 to 7.00", "5.00 to 6.00", "5.00 to 6.00", "> 7.00"]

# per-item lookup of pIC50; items listed below
1. O=C(O)c1ccc(N2CCN(c3nnc(Cc4ccccc4)c4ccccc34)CC2)cc1
2. O=C(c1ccc(N2CCN(c3nnc(Cc4ccccc4)c4ccccc34)CC2)nc1)N1CCC(O)C1 (centres unmarked) [Example 54o]
3. CN1CCN(C(=O)c2ccc(N3CCN(c4nnc(Cc5ccccc5)c5ccccc45)CC3)nc2)CC1 [Example 54i]
4. O=C(Cc1ccc(N2CCN(c3nnc(Cc4ccccc4)c4ccccc34)CC2)nc1)N1CCCC1
5. CC(C)CC(=O)NCc1ccc(N2CCN(c3nnc(Cc4ccccc4)c4ccccc34)CC2)cc1 [Example 78c]
6. C[C@H]1CN(c2ccc(C#N)cn2)CCN1c1nnc(Cc2ccccc2)c2ccccc12
7. N#Cc1ccc(N2CCN(c3cnc(Cc4cccc(C(F)(F)F)c4)c4ccccc34)CC2)nc1

1: 5.00 to 6.00; 2: 6.00 to 7.00; 3: 6.00 to 7.00; 4: > 7.00; 5: > 7.00; 6: > 7.00; 7: 5.00 to 6.00

Batch request: pIC50 for each of the following compounds.
1. COC(=O)c1cnc(N2CCN(c3nnc(Cc4ccccc4)c4ccccc34)CC2)nc1
2. O=C1CN(c2nnc(Cc3ccccc3)c3ccccc23)CCN1c1ccccc1

1: 6.00 to 7.00; 2: 6.00 to 7.00

====

pIC50: −log10 of the molar value.
Record: pIC50 reported on mouse Smoothened receptor (Mus musculus).

Would you please look over these solved cases?
CC(=O)NCc1ccc(N2CCN(c3nnc(Cc4ccccc4)c4ccccc34)CC2)nc1: 6.00 to 7.00
Cc1cc(N2CCN(c3ccc(C#N)cn3)CC2)nnc1Cc1ccc(F)cc1: 6.00 to 7.00
CC(C)(C)c1ccc(N2CCN(c3nnc(Cc4cc(Cl)cc(Cl)c4)c4ccccc34)CC2)nc1: > 7.00

Let us examine a further case.
What value of pIC50 has been reported for the following compound? `Cc1cc(Cc2ccc(F)cc2)nnc1N1CCN(c2ccc(C#N)cn2)CC1` 6.00 to 7.00

====

# System: Gli-luciferase activity
# test: Reporter gene assay (RGA) in TMHh12 cells, antagonism of Gli-luciferase activity in the presence of a Smo agonist
# Assay type: cell-based
# assay.context: 25 nM small molecule Smo agonist, read-out: RGA (25 nM Smo agonist) IC50
Could you please report measured IC50 for the items listed next?

CC(=O)Nc1ccc(C2CCN(c3nnc(Cc4ccccc4)c4ccccc34)CC2)cc1: 1 to 10 µM
N#Cc1ccc(N2CCN(c3nnc(Cc4ccc(F)cc4)c4ccccc34)CC2)nc1: 0.1 to 1 µM
CS(=O)(=O)NCc1ccc(N2CCN(c3nnc(Cc4ccccc4)c4ccccc34)CC2)nc1: 0.1 to 1 µM
CCOC(=O)c1ccc(N2CCN(c3nnc(CN4CCOCC4)c4ccccc34)CC2)nc1: 1 to 10 µM
N#Cc1ccc(N2CCN(c3nnc(Cc4cccc(Br)c4)c4ccccc34)CC2)nc1: 0.1 to 1 µM
O=C(NCCO)c1ccc(N2CCN(c3nnc(Cc4ccccc4)c4ccccc34)CC2)nc1 [Example 54e]: 0.1 to 1 µM
CC(O)(CN1CCC(O)CC1)c1cnc(N2CCN(c3nnc(Cc4ccccc4)c4ccccc34)CC2)cn1 (centres unmarked): 0.1 to 1 µM

# next compound below
Please give the measured IC50 for this compound: Cc1ccc(N2CCN(c3nnc(Cc4ccncc4)c4ccccc34)CC2C)cc1 (centres unmarked) 1 to 10 µM

====

# System: Gli-luciferase activity
# test: Reporter gene assay (RGA) in TMHh12 cells, antagonism of Gli-luciferase activity in the presence of a Smo agonist
# Format: cell-based
# assay.context: 25 nM small molecule Smo agonist, read-out: RGA (25 nM Smo agonist) IC50
# Experimental: Activity of the compounds was evaluated using a reporter gene assay (RGA) in TMHh12 cells.
I'd appreciate it if you could supply IC50 values for the items below.

Below, 3 compounds whose answers are already recorded.
Cc1c(N2CCN(c3ccc(C(F)(F)F)cn3)CC2)nnc(Cc2ccccc2)c1CNCc1ccccc1 [Example 242]: 1 to 10 µM
CC(=O)NCc1ccc(N2CCN(c3nnc(Cc4ccccc4)c4ccccc34)CC2)cc1 [Example 75]: 1 to 10 µM
CC(C)n1cc2c(Cc3ccccc3)nnc(N3CCN(c4ccc(C(F)(F)F)cn4)CC3)c2c1 [Example 244]: 1 to 10 µM

Batch request: IC50 for each of the following compounds.
1. CC(C)(O)c1ccc(C2CCN(c3nnc(Cc4ccccc4)c4ccccc34)CC2)cc1 [Example 124]
2. COC(=O)c1cnc(N2CCN(c3nnc(Cc4ccccc4)c4ccccc34)CC2)cn1 [Example 138]
3. N#Cc1ccc(N2CCN(c3nnc(Cc4ccc(Cl)cc4Cl)c4ccccc34)CC2)nc1 [Example 177]
4. COCCN(C)C(=O)c1ccc(N2CCN(c3nnc(Cc4ccccc4)c4ccccc34)CC2)nc1 [Example 54g]
5. c1ccc(Cc2nnc(N3CCN(c4ncccn4)CC3)c3ccccc23)cc1 [Example 25]
6. Cc1c(Cc2ccccc2)nnc(N2CCN(c3ccc(C(F)(F)F)cn3)CC2)c1CNCc1ccccc1 [Example 241]

["1 to 10 µM", "0.1 to 1 µM", "0.1 to 1 µM", "0.1 to 1 µM", "1 to 10 µM", "10 to 40 µM"]

For each of the compounds below, state IC50.
1. Cc1nc(N2CCN(c3nnc(Cc4ccccc4)c4ccccc34)CC2)ccc1C#N [Example 130]
2. C[C@H]1CN(c2ccc(C(C)(C)O)cn2)CCN1c1nnc(Cc2ccccc2Cl)c2ccccc12 [Example 196]
3. COc1ccccc1Cc1nnc(N2CCN(c3ccc(C#N)cn3)CC2)c2ccccc12 [Example 175]
4. FC(F)(F)c1cnc(N2CCCN(c3nnc(Cc4ccccc4)c4ccccc34)CC2)c(Cl)c1 [Example 17]

1 to 10 µM
< 0.1 µM
1 to 10 µM
1 to 10 µM

Consider the following items and state reported IC50 for each.
1. O=C(Cc1ccc(N2CCN(c3nnc(Cc4ccccc4)c4ccccc34)CC2)nc1)N1CCCC1 [Example 171]
2. C[C@H]1CN(c2ccc(C(C)(C)O)cn2)CCN1c1nnc(Cc2ccc(F)cc2F)c2ccccc12 [Example 195]
3. CN(C)C(=O)c1cnc(N2CCN(c3nnc(Cc4ccccc4)c4ccccc34)CC2)nc1 [Example 54aa]

0.1 to 1 µM
< 0.1 µM
0.1 to 1 µM
